Tested on: Plasmodium berghei
Assay: Luciferase/luciferin-expressing antifolate-resistant parasites were used to infect a culture of HepG2 cells that were pre-incubated with compounds. Infected hepatocytes emit light due to the luciferase reaction. Assay results are presented as the percent inhibition of light emission compared to control. […]
Type: functional
Conditions: sporozoite, PBLUC_HILL_SLOPE 7.08, PBLUC_R_SQUARED 0.106, read-out: LUCIFERASE INFECTION ASSAY - IC50
pIC50: −log10 of the molar value.
measure-name: pIC50

Reported pIC50, compound CC(C)(C)OC(=O)NC1CCN(C(=O)Nc2cc(Cl)cc(Cl)c2)CC1 : ____
< 5.07
